# experimental.details: Toxicity liver stage against HepG2, at 10uM
# Type: cell-based
# Set-up: test concentration 10 uM, cell line HepG2-A16-CD81EGFP
# assay.context: human, HepG2-A16-CD81EGFP cells; read-out: INHIBITION
Below, each entry is listed with its recorded cytotoxicity at 10 µM.
Numbers only here, please. The scale is %.

As a guide, the following entries are already answered.
In [3]: df
Out[3]:
                                   molecule  assay_result
0  Cc1nccn1-c1cc(CNC(=O)CCNC(=O)C2CCCC2)ccn1         -2.06
1  CCC(CC)c1cc(CNC(=O)N2CCCC(N(C)C)C2)on1 (configuration not stated)          1.47
2  Cc1nccn1-c1ccc(CNS(=O)(=O)N2CCCCC2C)cn1 (configuration not stated)           -11
3  Cc1ccc2c(c1)OC(C)(C)CC2NC(=O)C1CCN(C)CC1 (configuration not stated)         -1.71
4  Cc1nn(CC(C)C)c(N(C)C)c1CNCc1ccc(CO)c(F)c1         -14.4
5  CC(NCc1ccc(-c2ccc(F)cc2)o1)c1nnc2n1CCC2 (configuration not stated)         -4.21

Return reported cytotoxicity at 10 µM. Input molecule: COc1ccc2c(c1)C1(CCN(Cc3ccoc3)CC1)N(C)CC2 -8.04

Return reported cytotoxicity at 10 µM. Input molecule: Cn1cccc1-c1nnc(C2(c3ccc4c(c3)OCO4)CCOCC2)o1 20.3

Return reported cytotoxicity at 10 µM. Input molecule: O=C(NCCN1CCOCC1)c1cc(Cl)c2c(c1)OCCCO2 -5.29

Return reported cytotoxicity at 10 µM. Input molecule: COCCN1CCc2onc(C(c3ccccc3)c3ccccc3)c2C1 -7.35

Return reported cytotoxicity at 10 µM. Input molecule: CC1=Nc2c(c(=O)[nH]n2C(C)C)C(c2ccc3ncccc3c2)S1 (configuration not stated) 4.66

Return reported cytotoxicity at 10 µM. Input molecule: CS(=O)(=O)c1cccc(S(=O)(=O)NC(=O)c2cscn2)c1 1.33

Return reported cytotoxicity at 10 µM. Input molecule: Fc1ccc(CN2CCC3(CC2)CCN(Cc2nccs2)CC3)cc1 4.92

Return reported cytotoxicity at 10 µM. Input molecule: CC(C)NS(=O)(=O)c1cc(C(=O)O)cc(-c2ccc3c(c2)OCO3)c1 0.873

Return reported cytotoxicity at 10 µM. Input molecule: O=C1CCC[C@]2(CN(S(=O)(=O)C3CCCCC3)C[C@H]2c2cccnc2)N1 -12.4

Return reported cytotoxicity at 10 µM. Input molecule: OC1(CN2CCCC2)COCCN(c2cc(C(F)(F)F)ccn2)C1 (configuration not stated) -5.34

Return reported cytotoxicity at 10 µM. Input molecule: CN(C)c1cc(C(=O)N2CCCN(Cc3nccn3C)CC2)ccn1 -1.56
